# SYSTEM_UNDER_TEST: Biotinylated CD3CEµ antigen (Creative Biomart)
# Sequence (P07766 23-126): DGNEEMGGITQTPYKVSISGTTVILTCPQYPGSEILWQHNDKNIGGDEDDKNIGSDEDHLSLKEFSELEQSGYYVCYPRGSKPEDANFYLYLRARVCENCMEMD
# ASSAY_PROCEDURE: BLI (ForteBio BLItz); biotinylated CD3 antigen on streptavidin biosensor, scFv dilution series in solution
READOUT_TYPE: pKd
By convention, pKd is the negative base-10 log of a molar concentration.

Examples with their reported pKd follow.
| BINDER | READOUT_TYPE | NUMERIC_RESULT |
| --- | --- | --- |
| CD3.9 scFv (scFv) scFv: ELVVTQEPSLTVSPGGTVTLTCRSSTGAVTTSNYANWVQQKPGQAPRGLIGGTNKRAPGTPARFSGSLLGGKAALTLSGVQPEDEAEYYCALWYSNLWVFGGGTKLTVLGATPPETGAETESPGETTGGSAESEPPGEGEVQLLESGGGLVQPGGSLKLSCAASGFTFNTYAMNWVRQAPGKGLEWVARIRSKYNNYATYYADSVKDRFTISRDDSKNTAYLQMNNLKTEDTAVYYCVRHGNFGNSYVSWFAYWGQGTLVTVSS | pKd | 7.12 |
| CD3.23 scFv (scFv) scFv: ELVVTQEPSLTVSPGGTVTLTCRSSNGAVTSSNYANWVQQKPGQAPRGLIGGTNKRAPGTPARFSGSLLGGKAALTLSGVQPEDEAVYYCALWYPNLWVFGGGTKLTVLGATPPETGAETESPGETTGGSAESEPPGEGEVQLLESGGGIVQPGGSLKLSCAASGFTFNTYAMNWVRQAPGKGLEWVARIRSKYNNYATYYADSVKDRFTISRDDSKNTVYLQMNNLKTEDTAVYYCVRHENFGNSYVSWFAHWGQGTLVTVSS | pKd | 6.76 |
| CD3.26 scFv (scFv) scFv: ELVVTQEPSHTVSPGGTVTLTCRSSTGEVTTSNYANWVQQKPGQAPRGLIGGTIKRAPGTPARFSGSLLGGKAALTLSGVQPEDEAEYYCALWYPNLWVFGGGTKLTVLGATPPETGAETESPGETTGGSAESEPPGEGEVQLLESGGGIVQPGGSLKLSCAASGFTFNTYAMNWVRQAPGKGLEWVARIRSKYNNYATYYADSVKDRFTISRDDSKNTVYLQMNNLKTEDTAVYYCVRHENFGNSYVSWFAHWGQGTLVTVSS | pKd | 6.66 |

Okay, next one:
-- ask // fetch pKd given entry CD3.25 scFv (scFv) scFv: ELVVTQEPSHTVSPGGTVTLTCRSSTGAVTSSNYANWVQQKPGQAPRGLIGGTIKRAPGTPARFSGSLLGGKAALTLSGVQPEDEAEYYCALWYPNLWVFGGGTKLTVLGATPPETGAETESPGETTGGSAESEPPGEGEVQLLESGGGIVQPGGSLKLSCAASGFTFNTYAMNWVRQAPGKGLEWVARIRSKYNNYATYYADSVKDRFTISRDDSKNTVYLQMNNLKTEDTAVYYCVRHENFGNSYVSWFAHWGQGTLVTVSS
-- reply 6.67
